Hey, just so you know, these numbers are from patent US11926619B2.

Can you tell me log10 IC50 for the items I'm about to list?
- Test System: SF3b complexes (Homo sapiens, UniProt O75533+Q7RTV0)
- Construct: endogenous in cells
- Test Protocol: Scintillation proximity assay (SPA) with [3H]-labelled pladienolide probe
- Details: wt SF3B1, read-out: SPA (wt SF3B1 cells) IC50
Hi team, quick reminder: these entries are log10 of IC50 (nM).

C/C(=C\C=C\[C@@H](C)COC(=O)N1CCCC1)[C@H]1OC(=O)C[C@H](O)CC[C@@](C)(O)[C@@H](OC(=O)N2CCN(C3CCCCCC3)CC2)/C=C/[C@@H]1C has a reported log10 IC50 of 0.45

Record C/C(=C\C=C\[C@@H](C)COC(=O)N1CCCC1)[C@H]1OC(=O)CCCC[C@@](C)(O)[C@@H](OC(=O)N2CCN(C)CC2)/C=C/[C@@H]1C , field log10 IC50: 0.22

Record C/C(=C\C=C\C(C)c1ncccn1)[C@H]1OC(=O)C[C@H](O)CC[C@@](C)(O)[C@@H](OC(=O)N2CCN(C3CCCCCC3)CC2)/C=C/[C@@H]1C (some centres unmarked) . Reported log10 IC50: 1.08

// field: log10 IC50; key: C/C(=C\C=C\[C@@H](C)CCC(=O)N1CCCC1)[C@H]1OC(=O)C[C@H](O)CC[C@@](C)(O)[C@@H](OC(=O)N2CCN(C3CCCCCC3)CC2)/C=C/[C@@H]1C ; value = 0.71

Recorded result, C/C(=C\C=C/[C@@H](C)COC(=O)N1CC[C@@H](O)C1)[C@H]1OC(=O)C[C@H](O)CC[C@H](C)[C@@H](OC(=O)N2CCN(C)CC2)/C=C/[C@@H]1C , log10 IC50: 0.33

The compound listed as C/C(=C\C=C\[C@@H](C)COC(=O)N1CC[C@@H](O)C1)[C@H]1OC(=O)CCCCC[C@@H](OC(=O)N2CCN(C)CC2)/C=C/[C@@H]1C has a reported log10 IC50 of 0.73

The measured log10 IC50 associated with C/C(=C\C=C\[C@@H](C)c1ccccn1)[C@H]1OC(=O)C[C@H](O)CC[C@@](C)(O)[C@@H](OC(=O)N2CCN(C3CCC3)CC2)/C=C/[C@@H]1C reads 0.86

The recorded log10 IC50 for entry C/C(=C\C=C\[C@@H](C)CNC(=O)N1CCCC1)[C@H]1OC(=O)C[C@H](O)CC[C@@](C)(O)[C@@H](OC(=O)N2CCN(C)CC2)/C=C/[C@@H]1C equals 0.88

Recorded result, CC(=O)O[C@H]1/C=C/[C@H](C)[C@@H](/C(C)=C/C=C/[C@@H](C)COC(=O)N2CCC[C@@H]2CO)OC(=O)C[C@H](O)CC[C@@]1(C)O , log10 IC50: 1.91

Notebook: C/C(=C\C=C\[C@@H](C)COC(=O)N1CCC[C@H]1CO)[C@H]1OC(=O)C[C@H](O)CC[C@@](C)(O)[C@@H](OC(=O)N2CCN(C3CCCCCC3)CC2)/C=C/[C@@H]1C , log10 IC50 read as 0.85

Quick note, log10 IC50 for C/C(=C\C=C\[C@@H](C)c1ccccn1)[C@H]1OC(=O)C[C@H](O)CC[C@H](C)[C@@H](OC(=O)N(C)C)/C=C/[C@@H]1C landed at 2.15

Value of log10 IC50 reported for the compound C/C(=C\C=C\C(C)c1cc(C)ccn1)[C@H]1OC(=O)C[C@H](O)CC[C@@](C)(O)[C@@H](OC(=O)N2CCN(C3CCCCCC3)CC2)/C=C/[C@@H]1C (some centres unmarked) is 0.83

Value of log10 IC50 reported for the compound C/C(=C\C=C\[C@@H](C)COC(=O)N1CC[C@@H](O)C1)[C@H]1OC(=O)CCCCC[C@@H](OC(=O)N2CCN(C3CCCCCC3)CC2)/C=C/[C@@H]1C is 1.60

// log10 IC50 lookup, compound = C/C(=C\C=C\[C@H](C)COC(=O)N1CCCC1)[C@H]1OC(=O)C[C@H](O)CC[C@@](C)(O)[C@@H](OC(=O)N2CCN(C3CCCCCC3)CC2)/C=C/[C@@H]1C , result: 1.06

Sure, the documented log10 IC50 for C/C(=C\C=C\[C@H](C)c1ccccn1)[C@H]1OC(=O)C[C@H](O)CC[C@@](C)(O)[C@@H](OC(=O)N2CCN(C)CC2)/C=C/[C@@H]1C is 0.76

So for CC(=O)O[C@H]1/C=C/[C@H](C)[C@@H](/C(C)=C/C=C/[C@@H](C)c2ccccn2)OC(=O)C[C@H](O)CC[C@@]1(C)O , the logged log10 IC50 turned out to be 1.65

log10 IC50 reported for this compound CC(=O)O[C@H]1/C=C/[C@H](C)[C@@H](/C(C)=C/C=C/[C@@H](C)COC(=O)N2CC[C@H](O)C2)OC(=O)C[C@H](O)CC[C@@]1(C)O : 1.98

---

- Tested on: Panc 05.04 cells (pancreatic cancer cells; Q699H and K700E mutations in SF3B1)
- Test Protocol: Cell viability assay (CellTiter-Glo, 72 hr), Panc 05.04 cells
- Assay type: cell-based
- Details: Panc 05.04 cells (mutant SF3B1); read-out: Panc 05.04 (mt SF3B1 cells), GI50
# if measured GI50 < 20 nM: yes (1)  # else: no (0)

## Input Strictly below 20 nM in GI50? C/C(=C\C=C\[C@@H](C)COC(=O)N1CCC[C@H]1CO)[C@H]1OC(=O)CCCCC[C@@H](OC(=O)N2CCN(CC(F)(F)F)CC2)/C=C/[C@@H]1C
## Output no (0)

## Input Is GI50 of C/C(=C\C=C\[C@@H](C)COC(=O)N1CC[C@@H](O)C1)[C@H]1OC(=O)C[C@H](O)CC[C@H](C)[C@@H](OC(=O)N2CCN(C)CC2)/C=C/[C@@H]1C strictly below 20 nM?
## Output yes (1)

## Input Hello, I'm reviewing records and need to know if GI50 of C/C(=C\C=C\C(C)c1ccnc(N2CCCC2)n1)[C@H]1OC(=O)C[C@H](O)CC[C@@](C)(O)[C@@H](OC(=O)N2CCN(C3CCCCCC3)CC2)/C=C/[C@@H]1C (stereo partly drawn) is below 20 nM. Could you check?
## Output no (0)

## Input Strictly below 20 nM: is that where GI50 of C/C(=C\C=C\[C@@H](C)CNC(=O)C1CCCC1)[C@H]1OC(=O)C[C@H](O)CC[C@@](C)(O)[C@@H](OC(=O)N2CCN(C)CC2)/C=C/[C@@H]1C sits?
## Output no (0)

## Input Does the reported GI50 of the following molecule sit strictly below 20 nM? C/C(=C\C=C\[C@@H](C)c1ccccn1)[C@H]1OC(=O)C[C@H](O)CC[C@@](C)(O)[C@@H](OC(=O)N2CCCN(C)CC2)/C=C/[C@@H]1C
## Output no (0)

## Input Is the reported GI50 for CC(=O)O[C@H]1/C=C/[C@H](C)[C@@H](/C(C)=C/C=C/[C@@H](C)c2ccccn2)OC(=O)C[C@H](O)CC[C@@]1(C)O strictly below 20 nM?
## Output no (0)

## Input In plain terms, does C/C(=C\C=C\[C@@H](C)COC(=O)N1CC[C@@H](O)C1)[C@H]1OC(=O)C[C@H](O)CC[C@H](C)[C@@H](OC(=O)N2CCN(C3CCCCCC3)CC2)/C=C/[C@@H]1C come in under 20 nM for GI50?
## Output yes (1)

## Input Please check: GI50 for C/C(=C\C=C\C(C)c1cccnn1)[C@H]1OC(=O)C[C@H](O)CC[C@@](C)(O)[C@@H](OC(=O)N2CCN(C)CC2)/C=C/[C@@H]1C (stereo partly drawn) , strictly under 20 nM or not?
## Output no (0)

## Input In plain terms, does C/C(=C\C=C\[C@H](C)c1ccccn1)[C@H]1OC(=O)C[C@H](O)CC[C@@](C)(O)[C@@H](OC(=O)N2CCC(N3CCCCCC3)CC2)/C=C/[C@@H]1C come in under 20 nM for GI50?
## Output yes (1)

## Input Please state whether GI50 is below 20 nM for CC(=O)O[C@H]1/C=C/[C@H](C)[C@@H](/C(C)=C/C=C/[C@@H](C)COC(=O)N(C)C(C)C)OC(=O)C[C@H](O)CC[C@@]1(C)O
## Output no (0)

## Input Criterion: GI50 strictly below 20 nM. Is it met by CC(=O)O[C@H]1/C=C/[C@H](C)[C@@H](/C(C)=C/C=C/C(C)CCc2ccccc2)OC(=O)C[C@H](O)CC[C@@]1(C)O (stereo partly drawn) ?
## Output no (0)

## Input Is GI50 of C/C(=C\C=C\[C@@H](C)CCC(=O)N1CCCC1)[C@H]1OC(=O)C[C@H](O)CC[C@@](C)(O)[C@@H](OC(=O)N2CCN(C3CCCCCC3)CC2)/C=C/[C@@H]1C strictly below 20 nM?
## Output yes (1)

## Input Lab note: GI50 threshold 20 nM. Does this molecule come in strictly under it? CC(=O)O[C@H]1/C=C/[C@H](C)[C@@H](/C(C)=C/C=C/Cc2ccncc2)OC(=O)C[C@H](O)CC[C@@]1(C)O
## Output no (0)

## Input Does the reported GI50 of the following molecule sit strictly below 20 nM? C/C(=C\C=C\[C@@H](C)c1ccccn1)[C@H]1OC(=O)C[C@H](O)CC[C@@](C)(O)[C@@H](O)/C=C/[C@@H]1C
## Output no (0)

## Input Report whether reported GI50 is lower than 20 nM (strictly) for CC[C@H](O)[C@@H](C)[C@H]1O[C@@H]1C[C@H](C)/C=C/C=C(\C)[C@H]1OC(=O)C[C@H](O)CC[C@@](C)(OC(=O)N2CCNCC2)[C@@H](OC(C)=O)/C=C/[C@@H]1C
## Output yes (1)

## Input Is 20 nM strictly greater than the molecule's reported GI50? molecule: CC(=O)O[C@H]1/C=C/[C@H](C)[C@@H](/C(C)=C/C=C/C(C)(O)c2ccccc2)OC(=O)C[C@H](O)CC[C@@]1(C)O (stereo partly drawn)
## Output no (0)

## Input Please determine if CC[C@H](O)[C@@H](C)[C@H]1O[C@@H]1C[C@@](C)(O)/C=C/C=C(\C)[C@H]1OC(=O)C[C@H](O)CC[C@@](C)(OC(=O)N2CCNCC2)[C@@H](OC(C)=O)/C=C/[C@@H]1C is below 20 nM in terms of GI50.
## Output no (0)

## Input Here's an entry: C/C(=C\C=C\[C@@H](C)COC(=O)N1CC[C@@H](O)C1)[C@H]1OC(=O)C[C@H](O)CC[C@@](C)(O)[C@@H](OC(=O)N2CCN(C)CC2)/C=C/[C@@H]1C . Is its GI50 below 20 nM?
## Output no (0)

## Input Please state whether GI50 is below 20 nM for C/C(=C\C=C\[C@@H](C)c1ccccn1)[C@H]1OC(=O)C[C@H](O)CC[C@@](C)(O)[C@@H](OC(=O)N2CCNCC2)/C=C/[C@@H]1C
## Output no (0)

## Input Identify whether the molecule C/C(=C\C=C\C(C)c1ccncc1)[C@H]1OC(=O)C[C@H](O)CC[C@@](C)(O)[C@@H](OC(=O)N2CCN(C3CCCCCC3)CC2)/C=C/[C@@H]1C (stereo partly drawn) records GI50 below 20 nM.
## Output yes (1)

## Input Strictly below 20 nM in GI50? CC(=O)O[C@H]1/C=C/[C@H](C)[C@@H](/C(C)=C/C=C/[C@@H](C)COC(=O)N2CCSC2)OC(=O)C[C@H](O)CC[C@@]1(C)O
## Output no (0)

## Input Lab note: confirm whether the reported GI50 for this molecule is below 20 nM, equality not counting. molecule: C/C(=C\C=C\[C@@H](C)COC(=O)N1CCCC1)[C@H]1OC(=O)C[C@@H](O)CC[C@](C)(O)[C@@H](OC(=O)N2CCN(C)CC2)/C=C/[C@@H]1C
## Output yes (1)

## Input Dear reviewer, please state whether C\C(=C/C=C/C=C/[C@@H](C)c1ccccn1)C1OC(=O)C[C@H](O)CC[C@@](C)(O)[C@@H](OC(=O)N2CCN(C3CCCCCC3)CC2)/C=C/[C@@H]1C (stereo partly drawn) has GI50 strictly beneath 20 nM.
## Output no (0)
